Each entry below carries its recorded IC50.
Target: B*3501 (Homo sapiens, UniProt P01889, A329T/A93T/A95T/C349S/D201E/D98Y/E176V/E187L/E204Q/E69T/I218V/K202T/L119I/Q94N/R155S/R180L/S121R/S35A/S48A/T118I/V127L/V306I/V36M/Y140S/Y91F)
Assay: biochemical

{"columns": ["SMILES STRING", "READOUT UNITS", "IC50"],
 "data": [
  ["CC[C@H](C)[C@H](NC(=O)[C@@H]1CCCN1C(=O)[C@@H](NC(=O)[C@@H]1CCCN1C(=O)[C@H](C)NC(=O)[C@H](C)NC(=O)[C@@H]1CCCN1C(=O)[C@H](C)NC(=O)[C@@H]1CCCN1C(=O)[C@@H](N)Cc1ccccc1)[C@@H](C)O)C(=O)O", "nM", 277],
  ["CC[C@H](C)[C@H](NC(=O)[C@@H]1CCCN1C(=O)[C@@H](NC(=O)[C@@H]1CCCN1C(=O)[C@H](C)NC(=O)[C@H](C)NC(=O)[C@@H]1CCCN1C(=O)[C@@H](N)Cc1ccccc1)[C@@H](C)O)C(=O)O", "nM", 655],
  ["CC[C@H](C)[C@H](NC(=O)[C@@H]1CCCN1C(=O)[C@H](C)NC(=O)[C@H](C)NC(=O)[C@@H]1CCCN1C(=O)[C@@H](NC(=O)[C@@H]1CCCN1C(=O)[C@@H](N)Cc1ccccc1)[C@@H](C)O)C(=O)O", "nM", 5140],
  ["CC(C)C[C@H](NC(=O)[C@@H]1CCCN1C(=O)[C@H](Cc1c[nH]c2ccccc12)NC(=O)[C@H](CO)NC(=O)[C@@H]1CCCN1C(=O)[C@H](C)NC(=O)[C@@H]1CCCN1C(=O)[C@@H](N)Cc1ccccc1)C(=O)O", "nM", 3.1]
]}

----------
Biological target: B*5301 (Homo sapiens, UniProt P01889, A329T/A93T/A95T/C349S/D201E/D98Y/E176V/E187L/E204Q/E69T/G107R/I218V/K202T/L105A/L119I/N104I/Q94N/R106L/R155S/R180L/S101N/S121R/S35A/S48A/T118I/V127L/V306I/V36M/Y140S/Y91F)
Experiment: biochemical
pIC50: −log10 of the molar value.
Each entry below carries its recorded pIC50.
ENDPOINT NAME: pIC50

{"columns": ["COMPOUND", "ENDPOINT NAME", "REPORTED VALUE"],
 "data": [
  ["CC[C@H](C)[C@H](NC(=O)[C@@H]1CCCN1C(=O)[C@H](C)NC(=O)[C@H](C)NC(=O)[C@@H]1CCCN1C(=O)[C@@H](NC(=O)[C@@H]1CCCN1C(=O)[C@H](C)NC(=O)[C@H](C)NC(=O)[C@@H]1CCCN1C(=O)[C@@H](N)Cc1ccccc1)[C@@H](C)O)C(=O)O [p53.76.F1111]", "pIC50", 5.49],
  ["CC[C@H](C)[C@H](NC(=O)[C@@H]1CCCN1C(=O)[C@H](C)NC(=O)[C@H](C)NC(=O)[C@@H]1CCCN1C(=O)[C@@H](NC(=O)[C@@H]1CCCN1C(=O)[C@@H](N)Cc1ccccc1)[C@@H](C)O)C(=O)O [p53.79.F118]", "pIC50", 5.21],
  ["CC[C@H](C)[C@H](NC(=O)[C@H](CO)NC(=O)[C@H](CO)NC(=O)[C@H](CO)NC(=O)[C@H](CC(C)C)NC(=O)[C@@H]1CCCN1C(=O)[C@H](Cc1c[nH]c2ccccc12)NC(=O)[C@H](CO)NC(=O)[C@@H]1CCCN1C(=O)[C@@H](N)Cc1ccccc1)C(=O)O [p53.88.F1110]", "pIC50", 8.07],
  ["CC[C@H](C)[C@H](NC(=O)[C@H](CO)NC(=O)[C@@H]1CCCN1C(=O)[C@H](C)NC(=O)[C@@H]1CCCN1C(=O)[C@H](C)NC(=O)[C@@H]1CCCN1C(=O)[C@@H](N)Cc1ccccc1)C(=O)O [p53.84.F118]", "pIC50", 6.88]
]}
